- targetEntity: Ephrin type-A receptor 3 (Homo sapiens) (UniProt P29320);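 further: mean inhibition value reported from the GSK PKIS kinase profiling screen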
- Sequence (P29320 whole entry): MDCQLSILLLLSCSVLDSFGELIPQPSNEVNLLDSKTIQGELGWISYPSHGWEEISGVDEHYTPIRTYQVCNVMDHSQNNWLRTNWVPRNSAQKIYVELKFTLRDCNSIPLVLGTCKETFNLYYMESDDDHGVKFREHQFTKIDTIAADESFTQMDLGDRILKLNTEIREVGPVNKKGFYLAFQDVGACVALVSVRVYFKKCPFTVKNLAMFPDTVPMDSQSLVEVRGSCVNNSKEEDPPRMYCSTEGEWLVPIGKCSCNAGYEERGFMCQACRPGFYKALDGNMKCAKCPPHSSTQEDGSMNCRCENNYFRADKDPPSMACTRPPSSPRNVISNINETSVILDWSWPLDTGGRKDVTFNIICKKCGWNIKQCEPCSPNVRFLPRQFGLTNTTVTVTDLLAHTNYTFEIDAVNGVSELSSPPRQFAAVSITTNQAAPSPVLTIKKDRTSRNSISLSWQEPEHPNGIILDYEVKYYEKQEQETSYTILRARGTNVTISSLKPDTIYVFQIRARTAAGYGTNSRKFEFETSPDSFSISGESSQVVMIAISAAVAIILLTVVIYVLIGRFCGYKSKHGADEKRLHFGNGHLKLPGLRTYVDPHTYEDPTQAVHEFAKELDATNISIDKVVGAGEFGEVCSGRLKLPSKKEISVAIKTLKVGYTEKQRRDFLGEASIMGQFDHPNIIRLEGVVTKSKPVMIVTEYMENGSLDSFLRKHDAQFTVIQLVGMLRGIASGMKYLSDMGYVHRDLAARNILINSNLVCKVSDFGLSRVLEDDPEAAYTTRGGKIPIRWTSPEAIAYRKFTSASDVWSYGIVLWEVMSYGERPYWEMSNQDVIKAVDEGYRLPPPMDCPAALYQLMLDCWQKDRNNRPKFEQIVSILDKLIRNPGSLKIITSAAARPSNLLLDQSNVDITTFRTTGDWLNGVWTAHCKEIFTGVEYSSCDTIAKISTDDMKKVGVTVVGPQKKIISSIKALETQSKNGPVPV
- cond: at 1 µM
Please provide measured inhibition for the entries that follow.
Field: numeric (%). Do not append units.

*Q* Fill blank: measured inhibition of the compound COc1cc(N2CCN(C(C)C)CC2)ccc1Nc1nc(Nc2ccc(F)cc2C(=O)NC[C@@H](O)CO)c2cc[nH]c2n1 is ____.
*A* -0.58

*Q* Now the same for COc1cc(Nc2ncc(-c3ccccc3)o2)cc(OC)c1OC
*A* -5.8

*Q* Please give the result for c1ccc(-c2n[nH]cc2-c2ccnc(-c3ccc(OCCN4CCOCC4)cc3)c2)nc1 too.
*A* -0.22

*Q* Can you check C/C(Nc1ccc(S(N)(=O)=O)cc1)=C1/C(=O)Nc2ccccc21 next?
*A* -1.74

*Q* Next compound: NCc1ccc(-n2c(-c3nonc3N)nc3cnccc32)cc1
*A* 4.64

* * *

- targetEntity: Mitogen-activated protein kinase 9 (Homo sapiens) (UniProt P45984);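 further: values are mean inhibition of JNK2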
- Sequence (P45984 whole entry, looked up): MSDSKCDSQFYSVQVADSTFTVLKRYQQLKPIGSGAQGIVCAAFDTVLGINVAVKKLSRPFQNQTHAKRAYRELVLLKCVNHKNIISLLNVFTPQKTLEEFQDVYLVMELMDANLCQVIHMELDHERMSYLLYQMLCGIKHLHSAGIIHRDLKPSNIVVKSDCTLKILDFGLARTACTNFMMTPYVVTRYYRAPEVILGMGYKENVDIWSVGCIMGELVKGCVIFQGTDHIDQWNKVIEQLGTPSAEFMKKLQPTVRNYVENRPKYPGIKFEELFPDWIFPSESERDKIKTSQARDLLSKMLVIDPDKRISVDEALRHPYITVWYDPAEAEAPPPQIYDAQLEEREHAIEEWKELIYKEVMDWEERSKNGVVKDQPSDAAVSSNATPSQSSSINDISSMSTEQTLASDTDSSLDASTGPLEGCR
- cond: at 0.1 µM
Give measured inhibition for each item. Keep answers brief.
Entry rule: numbers only, all in %.

*Q* Any idea what inhibition was measured for COc1cc(N2CCN(C(C)C)CC2)ccc1Nc1nc(Nc2ccc(F)cc2C(=O)NC[C@@H](O)CO)c2cc[nH]c2n1 ?
*A* 14.9

*Q* Then this compound: CN(c1ccc(NC(=O)Nc2c(Cl)cccc2Cl)cc1)c1ccnc(Nc2cccc(CS(C)(=O)=O)c2)n1
*A* 5.56

*Q* Would you kindly repeat that for COc1cccc(-n2cnc3c(N/N=C/c4ccncc4)ncnc32)c1 ?
*A* -1.67

*Q* Try the compound Fc1ccc(-c2nc3n(c2-c2ccncc2)CCS3)cc1
*A* 7.66

*Q* Continue with COc1cc2ncn(-c3cc(OCc4ccccc4C(F)(F)F)c(C(C)=O)s3)c2cc1OC
*A* 0.67

*Q* Field entry: COc1ccc2cc(-c3c(-c4ccncc4)nc(-c4ccc(S(C)(=O)=O)cc4C)n3C)ccc2c1
*A* 4.44

*Q* Now the compound O=C1Nc2ccc(I)cc2C1=Cc1cc(Br)c(O)c(Br)c1
*A* 5.13

*Q* Now this one: CCc1nccc2c1nc(-c1nonc1N)n2CC
*A* 3.7

*Q* Likewise for CN(C)c1ccc2c(c1)/C(=C/Nc1ccc(S(N)(=O)=O)cc1)C(=O)N2 ?
*A* 3.27

*Q* Could you do the same for O=C(Nc1ccc(Oc2ccc3[nH]c(NC(=O)c4ccccc4)nc3c2)cc1)Nc1cc(C(F)(F)F)ccc1F , please?
*A* 3.43

* * *

So I've got a bunch of compounds here, and I need their inhibition values.
- targetEntity: Dual specificity tyrosine-phosphorylation-regulated kinase 1A (Homo sapiens) (UniProt Q13627)
- cond: at 0.1 µM
- Description: GSK_PKIS: DYRK1A mean inhibition at 0.1 uM [Nanosyn]
Output spec: scalar in %, unitless text.

*Q* Any idea what inhibition was measured for COc1cc2ncn(-c3cc(OCc4cccs4)c(C(N)=O)s3)c2cc1OC ?
*A* -2.96

*Q* Follow-up item: Cc1ccc(C(=O)NC(C)C)cc1-c1ccc(C(=O)NCC2CC2)cc1
*A* 1.18

*Q* Query COc1ccc2cc(-c3c(-c4ccncc4)nc(-c4ccc([S+](C)[O-])cc4C)n3C)ccc2c1 (centres undefined) next
*A* 2

*Q* Now give it for COc1cc(Nc2ncc(-c3ccccc3)o2)cc(OC)c1OC too.
*A* 1.8

*Q* Another compound: Fc1ccc(-c2ncn(C3CCNCC3)c2-c2ccnc(Oc3ccc(Oc4ccccc4)cc3)n2)cc1
*A* 2.96

*Q* What do you get for CN(c1ccc(NC(=O)Nc2c(Cl)cccc2Cl)cc1)c1ccnc(Nc2cccc(CS(C)(=O)=O)c2)n1 ?
*A* -0.53

*Q* Follow-up item: COc1cc(N2CCN(C(C)C)CC2)ccc1Nc1nc(Nc2ccc(F)cc2C(=O)NC[C@@H](O)CO)c2cc[nH]c2n1
*A* 0.93

*Q* Now the compound CCc1cccc(CC)c1/C=C/c1cncc(C(=O)NC)c1
*A* 1.88

*Q* Cool, now NS(=O)(=O)c1ccc(N/N=C2\C(=O)Nc3ccc(C(=O)NCCCn4ccnc4)cc32)cc1
*A* 7.66

* * *

- targetEntity: Mast/stem cell growth factor receptor Kit (Homo sapiens);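 further: values given as mean inhibition of KIT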
- cond: at 1 µM
valueType: inhibition (%)
Please state the figure in %; there is no need to write the unit.

*Q* Form field: reported inhibition of O=C(Nc1n[nH]c2nc(-c3ccc(O)cc3)c(Br)cc12)C1CC1
*A* 63.1

*Q* Follow-up item: Fc1ccc(-c2ncn(CCCN3CCOCC3)c2-c2ccncc2)cc1
*A* -0.81

*Q* Would you mind doing O=C1Nc2ccccc2/C1=C/Nc1ccc(-n2cncn2)cc1 as well?
*A* 75.9

*Q* Can you check CN(c1ccc(NC(=O)Nc2c(Cl)cccc2Cl)cc1)c1ccnc(Nc2cccc(CS(C)(=O)=O)c2)n1 next?
*A* 95.9

*Q* Thanks! And COc1ccc2cc(-c3c(-c4ccncc4)nc(-c4ccc([S+](C)[O-])cc4C)n3C)ccc2c1 (stereo unspecified) ?
*A* 4.45

*Q* Try this compound next: NS(=O)(=O)c1ccc(N/N=C2\C(=O)Nc3ccc(C(=O)NCCCn4ccnc4)cc32)cc1
*A* 9.5

* * *

Exercise: state measured inhibition for each of the compounds provided.
- targetEntity: Protein-tyrosine kinase 6 (Homo sapiens) (UniProt Q13882)
- Sequence (Q13882 whole entry, looked up): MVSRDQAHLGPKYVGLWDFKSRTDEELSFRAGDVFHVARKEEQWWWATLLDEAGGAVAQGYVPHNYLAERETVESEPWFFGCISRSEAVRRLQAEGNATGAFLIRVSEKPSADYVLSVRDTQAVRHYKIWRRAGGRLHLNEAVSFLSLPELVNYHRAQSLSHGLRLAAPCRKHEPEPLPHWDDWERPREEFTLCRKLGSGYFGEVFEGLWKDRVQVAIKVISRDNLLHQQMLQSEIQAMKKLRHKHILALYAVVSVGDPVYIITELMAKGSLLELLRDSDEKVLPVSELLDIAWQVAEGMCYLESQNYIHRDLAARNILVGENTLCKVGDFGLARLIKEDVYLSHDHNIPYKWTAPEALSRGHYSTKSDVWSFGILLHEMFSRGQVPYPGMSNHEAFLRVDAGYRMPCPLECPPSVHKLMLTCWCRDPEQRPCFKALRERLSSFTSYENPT
- cond: at 1 µM
- Description: GSK_PKIS: BRK mean inhibition at 1 uM [Nanosyn]
Dear colleague, please return just the value in %, with no unit written.

*Q* Kindly state the measured inhibition obtained for Cc1ccc(C(=O)NC(C)C)cc1-c1ccc(C(=O)NCC2CC2)cc1 with Protein-tyrosine kinase 6 (Homo sapiens) (UniProt Q13882).
*A* -4.09

*Q* Also, CCc1nccc2c1nc(-c1nonc1N)n2CC please.
*A* -0.37

*Q* Also CN(C)CCCNc1nccc(-c2c(-c3ccc(F)cc3)nn3cc(C(F)(F)F)ccc23)n1 ?
*A* 4.39

*Q* Similarly, O=C(Nc1n[nH]c2cc(-c3cc(F)ccc3F)ccc12)C1CC1 ?
*A* 2.23

*Q* Could you do the same for FC(F)(F)c1cccc(Nc2nccc(-c3cnn4nc(-c5ccccc5)ccc34)n2)c1 , please?
*A* 2.26

* * *

- targetEntity: Discoidin domain-containing receptor 2 (Homo sapiens) (UniProt Q16832);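 further: reported figure is the mean inhibition of DDR2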
- Sequence (whole entry): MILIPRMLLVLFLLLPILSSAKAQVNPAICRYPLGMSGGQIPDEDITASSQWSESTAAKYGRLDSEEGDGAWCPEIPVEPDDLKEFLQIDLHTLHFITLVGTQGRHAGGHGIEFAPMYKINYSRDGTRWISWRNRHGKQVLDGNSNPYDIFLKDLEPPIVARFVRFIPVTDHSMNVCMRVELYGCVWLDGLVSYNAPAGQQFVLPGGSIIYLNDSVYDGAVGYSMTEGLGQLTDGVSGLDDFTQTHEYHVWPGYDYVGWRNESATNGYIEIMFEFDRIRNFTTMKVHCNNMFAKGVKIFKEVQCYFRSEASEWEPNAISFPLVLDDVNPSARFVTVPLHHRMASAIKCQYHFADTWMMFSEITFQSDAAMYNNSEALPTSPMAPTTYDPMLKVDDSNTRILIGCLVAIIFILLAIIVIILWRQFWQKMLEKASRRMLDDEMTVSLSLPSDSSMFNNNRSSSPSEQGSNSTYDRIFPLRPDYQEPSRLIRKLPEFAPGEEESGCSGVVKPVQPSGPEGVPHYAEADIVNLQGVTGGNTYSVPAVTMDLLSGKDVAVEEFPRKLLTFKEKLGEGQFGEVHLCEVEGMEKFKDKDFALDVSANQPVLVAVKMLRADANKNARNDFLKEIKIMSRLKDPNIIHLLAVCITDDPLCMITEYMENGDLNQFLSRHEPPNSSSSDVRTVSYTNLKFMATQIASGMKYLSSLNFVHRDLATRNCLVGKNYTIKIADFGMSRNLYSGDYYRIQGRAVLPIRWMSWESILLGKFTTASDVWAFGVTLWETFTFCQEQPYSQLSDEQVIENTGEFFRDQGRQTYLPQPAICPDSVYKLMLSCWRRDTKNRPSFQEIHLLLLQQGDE
- cond: at 1 µM
valueType: inhibition (%)
Give the value, in units of %, as a plain number.

*Q* Notebook: pull reported inhibition for Discoidin domain-containing receptor 2 (Homo sapiens) (UniProt Q16832), entry NCc1ccc(-n2c(-c3nonc3N)nc3cnccc32)cc1
*A* 3.01

*Q* O=C1NC(=O)C(c2cccc(Cl)c2)=C1Nc1ccc(Cl)c(C(=O)O)c1 , same question.
*A* 4.88

*Q* Request: CN(C)CCOc1ccc(-c2cc(-c3ccc4c(c3)CCC4=NO)c(-c3ccncc3)o2)cc1
*A* 1.8

*Q* Moving on to the next molecule: Fc1ccc(-c2ncn(CCCN3CCOCC3)c2-c2ccncc2)cc1
*A* -0.13

*Q* // same read-out, input: COc1cc(Nc2ncc3c(C)nc(-c4cccc(C(F)(F)F)c4)n3n2)cc(OC)c1OC
*A* 0.73

*Q* Thanks! And COc1cccc(/C=N/Nc2ncnc3c2cnn3-c2cccc(OC)c2)c1 ?
*A* 2.5

*Q* // same read-out, input: O=C(NCC1CC1)c1ccc(-c2cccc(C(=O)NC3CC3)c2)cc1
*A* 7.61

*Q* Param item: CCS(=O)(=O)c1ccc(OC)c(Nc2ncc(-c3cccc(-c4ccccc4F)c3)o2)c1
*A* 30.8

*Q* CCC(=O)Nc1ccc(C)c(-c2ccc(C(=O)NCC3CC3)cc2)c1 ?
*A* 2.57

*Q* Can you check CCS(=O)(=O)c1ccc(OC)c(Nc2ncc(-c3ccccc3Cl)o2)c1 next?
*A* 8.46
